These measurements were taken from the supplement of paper PMC7366291.

Tested on: Danio rerio Tg(wt1b:EGFP) embryo, pronephros
Assay: glomerular width (mean of left and right), fold change vs DMSO control; higher = wider glomerulus
Conditions: 25 µM; exposure: 24-48 hpf
Structures can show the parent of a compound that is named as a salt.
# glomerular width per record follows
quantity_measured: glomerular width

INSERT INTO results (compound, experimental_value) VALUES
  ('Cc1ccnc2c1NC(=O)c1cccnc1N2C1CC1', 1.02),
  ('CN1CCN(C2=Nc3ccccc3Oc3ccc(Cl)cc32)CC1 [Loxapine succinate]', 0.974),
  ('CCOC(=O)NNc1nncc2ccccc12 [Todralazine hydrochloride]', 0.993),
  ('COc1cc(C(=O)N2CCOCC2)cc(OC)c1OC', 0.984),
  ('Cc1cc(C)nc(NS(=O)(=O)c2ccc(N)cc2)n1 [Sulfamethazine sodium salt]', 1.08),
  ('CNCC(O)c1ccc(OC(=O)C(C)(C)C)c(OC(=O)C(C)(C)C)c1 (centres undefined) [Dipivefrin hydrochloride]', 1.04),
  ('CC(C)(C#N)c1cc(Cn2cncn2)cc(C(C)(C)C#N)c1', 1.06),
  ('CN(C)/N=N/c1[nH]cnc1C(N)=O', 0.991),
  ('COc1cc(OC)c(C(=O)CCCN2CCCC2)c(OC)c1 [Buflomedil hydrochloride]', 1.08);
